Origin of the recorded values: PubChem BioAssay AID602319

Biological target: Monoacylglycerol lipase ABHD6 (Mus musculus) (UniProt Q8R2Y0)
Sequence (Q8R2Y0 whole entry, looked up): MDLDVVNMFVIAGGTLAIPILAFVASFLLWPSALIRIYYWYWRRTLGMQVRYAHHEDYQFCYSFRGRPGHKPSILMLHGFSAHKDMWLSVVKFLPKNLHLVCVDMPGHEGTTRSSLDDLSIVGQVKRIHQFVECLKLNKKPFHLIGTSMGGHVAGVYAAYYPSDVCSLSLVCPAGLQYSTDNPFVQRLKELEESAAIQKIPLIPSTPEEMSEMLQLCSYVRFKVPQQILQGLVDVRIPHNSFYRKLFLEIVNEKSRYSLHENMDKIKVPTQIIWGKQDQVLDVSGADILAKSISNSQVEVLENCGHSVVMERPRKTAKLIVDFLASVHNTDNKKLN
Experiment: off-target ABHD6 activity blockade – biochemical, gel-based competitive ABPP, fluorescence, mouse, in vitro, selectivity assay for DAGLb inhibitor project, late-stage follow-up (AID 602319)
Details: Neuro-2A membrane proteome, HT-01 probe, at 0.01 µM, stronger effect = higher value
Result type: inhibition (%)
Quick note: give the figure in %, leave out the unit.

**Query** Reported inhibition, compound O=C(O)c1cccc(-c2ccc(-c3cn(C(=O)N4CCCCC4CCc4ccccc4)nn3)cc2)c1 (centres undefined) : ____
**Result** 94

**Query** Need inhibition, item COc1ccccc1-c1ccc(-c2cn(C(=O)N3CCCCC3c3ccccc3)nn2)cc1 (centres undefined)
**Result** 90

**Query** Given COc1ccccc1-c1ccc(-c2cn(C(=O)N3CCCCC3CCc3ccccc3)nn2)cc1 (centres undefined) , state its recorded inhibition.
**Result** 70

**Query** Dear colleague, I am looking for the recorded inhibition of the following compound: O=C(N1CCCCC1Cc1ccccc1)n1cc(-c2ccc(-c3cccc(CO)c3)cc2)nn1 (centres undefined)
**Result** 90

###

Target: Monoacylglycerol lipase ABHD6 (Mus musculus)
Experiment: off-target ABHD6 activity blockade – biochemical, gel-based competitive ABPP, fluorescence, mouse, in vitro, selectivity assay for DAGLb inhibitor project, late-stage follow-up (AID 602319)
Conditions: Neuro-2A membrane proteome, HT-01 probe, ABHD6 inhibition, at 0.001 µM, stronger effect = higher value
// classify(record): look up inhibition in ranges low: < 20%; medium: ≥ 20% and < 40%; high: ≥ 40%

**Query** Looking at COc1ccccc1-c1ccc(-c2cn(C(=O)N3CCCCC3CCc3ccccc3)nn2)cc1 (stereo not drawn) , which class would you pick?
**Result** medium

**Query** Please indicate the class for O=C(N1CCCCC1c1ccccc1)n1cc(-c2ccc(-c3ccc(CO)cc3)cc2)nn1 (stereo not drawn) based on its inhibition.
**Result** low

**Query** Lab note: sort `COc1ccccc1-c1ccc(-c2cn(C(=O)N3CCC(Cc4ccccc4)CC3)nn2)cc1` into the matching inhibition band.
**Result** high

**Query** Please let me know in which category the item NC(=O)c1ccc(-c2ccc(-c3cn(C(=O)N4CCCCC4c4ccccc4)nn3)cc2)cc1 (stereo not drawn) belongs.
**Result** low

**Query** Please let me know in which category the item O=C(c1ccc(-c2ccc(-c3cn(C(=O)N4CCCCC4c4ccccc4)nn3)cc2)cc1)N1CCCCC1 (stereo not drawn) belongs.
**Result** medium

**Query** Lab note: sort O=C(N1CCCCC1c1ccccc1)n1cc(C(O)(c2ccccc2)c2ccccc2)nn1 (stereo not drawn) into the matching inhibition band.
**Result** medium

**Query** For O=C(O)c1cccc(-c2ccc(-c3cn(C(=O)N4CCCCC4CCc4ccccc4)nn3)cc2)c1 (stereo not drawn) , which inhibition bin applies?
**Result** medium

**Query** Hey, which category is O=C(O)c1ccc(-c2ccc(-c3cn(C(=O)N4CCCCC4CCc4ccccc4)nn3)cc2)cc1 (stereo not drawn) in, do you know?
**Result** low

**Query** # classify by inhibition band: O=C(c1ccc(-c2ccc(-c3cn(C(=O)N4CCCCC4Cc4ccccc4)nn3)cc2)cc1)N1CCCCC1 (stereo not drawn)
**Result** low

**Query** Field: class (inhibition) — entry: O=C(N1CCCCC1c1ccccc1)n1cc(-c2ccc(-c3ccccc3)cc2)nn1 (stereo not drawn)
**Result** low

**Query** Assign a category based on measured inhibition for COc1ccccc1-c1ccc(-c2cn(C(=O)N3CCCC(Cc4ccccc4)C3)nn2)cc1 (stereo not drawn) and give only the class name.
**Result** high

**Query** For O=C(N1CCCCC1c1ccccc1)n1cc(-c2ccc(-c3ccccc3CO)cc2)nn1 (stereo not drawn) , which inhibition bin applies?
**Result** medium
